All values here come from patent US5840684A.

Test system: Streptococcus pyogenes C203
procedure text: broth micro-dilution MIC
Format: cell-based
assay readout: MIC

Identify the reported MIC for the following entry. CNC(CC(C)C)C(=O)NC1C(=O)NC(CC(N)=O)C(=O)NC2C(=O)NC3C(=O)NC(C(=O)NC(C(=O)O)c4cc(O)cc(O)c4-c4cc3ccc4O)C(OC3CC(C)(N)C(O)C(C)O3)c3ccc(c(Cl)c3)Oc3cc2cc(c3OC2OC(CO)C(O)C(O)C2OC2CC(C)(NCc3cccc(Sc4ccc(C(C)(C)C)cc4)c3)C(O)C(C)O2)Oc2ccc(cc2Cl)C1O (stereo not drawn) [Compound 228]
0.125 µg/mL

Identify the reported MIC for the following entry. CNC(CC(C)C)C(=O)NC1C(=O)NC(CC(N)=O)C(=O)NC2C(=O)NC3C(=O)NC(C(=O)NC(C(=O)O)c4cc(O)cc(O)c4-c4cc3ccc4O)C(OC3CC(C)(N)C(O)C(C)O3)c3ccc(c(Cl)c3)Oc3cc2cc(c3OC2OC(CO)C(O)C(O)C2OC2CC(C)(NCc3cccc(OC4CCCCC4)c3)C(O)C(C)O2)Oc2ccc(cc2Cl)C1O (stereo not drawn) [Compound 153]
≤ 0.06 µg/mL

Identify the reported MIC for the following entry. CC(C)CC(C(=O)NC1C(=O)NC(CC(N)=O)C(=O)NC2C(=O)NC3C(=O)NC(C(=O)NC(C(=O)O)c4cc(O)cc(O)c4-c4cc3ccc4O)C(OC3CC(C)(N)C(O)C(C)O3)c3ccc(c(Cl)c3)Oc3cc2cc(c3OC2OC(CO)C(O)C(O)C2OC2CC(C)(NCc3ccc(-c4ccccc4)cc3)C(O)C(C)O2)Oc2ccc(cc2Cl)C1O)N(C)Cc1ccc(-c2ccccc2)cc1 (stereo not drawn) [Compound 251]
≤ 0.06 µg/mL

----------
System: Staphylococcus aureus S13E
Assay type: cell-based
assay readout: MIC (µg/mL)
Numeric only. Scale: µg/mL

Given CNC(CC(C)C)C(=O)NC1C(=O)NC(CC(N)=O)C(=O)NC2C(=O)NC3C(=O)NC(C(=O)NC(C(=O)O)c4cc(O)cc(O)c4-c4cc3ccc4O)C(OC3CC(C)(N)C(O)C(C)O3)c3ccc(c(Cl)c3)Oc3cc2cc(c3OC2OC(CO)C(O)C(O)C2OC2CC(C)(NCc3ccc4cc(C)ccc4c3)C(O)C(C)O2)Oc2ccc(cc2Cl)C1O (stereo not drawn) , report its MIC on Staphylococcus aureus S13E.
0.5

Given CNC(CC(C)C)C(=O)NC1C(=O)NC(CC(N)=O)C(=O)NC2C(=O)NC3C(=O)NC(C(=O)NC(C(=O)O)c4cc(O)cc(O)c4-c4cc3ccc4O)C(OC3CC(C)(N)C(O)C(C)O3)c3ccc(c(Cl)c3)Oc3cc2cc(c3OC2OC(CO)C(O)C(O)C2OC2CC(C)(NCc3ccc(C#Cc4ccccc4)cc3)C(O)C(C)O2)Oc2ccc(cc2Cl)C1O (stereo not drawn) , report its MIC on Staphylococcus aureus S13E.
4

----------
For each record, write down the corresponding MIC.
Test system: Staphylococcus aureus S13E
Type: cell-based
Numeric only. Scale: µg/mL

Identify the reported MIC for the following entry. CNC(CC(C)C)C(=O)NC1C(=O)NC(CC(N)=O)C(=O)NC2C(=O)NC3C(=O)NC(C(=O)NC(C(=O)O)c4cc(O)cc(O)c4-c4cc3ccc4O)C(OC3CC(C)(NCc4c5ccccc5c(C)c5ccccc45)C(O)C(C)O3)c3ccc(c(Cl)c3)Oc3cc2cc(c3OC2OC(CO)C(O)C(O)C2OC2CC(C)(NCc3c4ccccc4c(C)c4ccccc34)C(O)C(C)O2)Oc2ccc(cc2Cl)C1O (centres unmarked) [Compound 283]
4

Identify the reported MIC for the following entry. CNC(CC(C)C)C(=O)NC1C(=O)NC(CC(N)=O)C(=O)NC2C(=O)NC3C(=O)NC(C(=O)NC(C(=O)O)c4cc(O)cc(O)c4-c4cc3ccc4O)C(OC3CC(C)(N)C(O)C(C)O3)c3ccc(c(Cl)c3)Oc3cc2cc(c3OC2OC(CO)C(O)C(O)C2OC2CC(C)(NCc3cccc(OC(C)=O)c3)C(O)C(C)O2)Oc2ccc(cc2Cl)C1O (centres unmarked) [Compound 77]
0.125

Identify the reported MIC for the following entry. CNC(CC(C)C)C(=O)NC1C(=O)NC(CC(N)=O)C(=O)NC2C(=O)NC3C(=O)NC(C(=O)NC(C(=O)O)c4cc(O)cc(O)c4-c4cc3ccc4O)C(OC3CC(C)(N)C(O)C(C)O3)c3ccc(c(Cl)c3)Oc3cc2cc(c3OC2OC(CO)C(O)C(O)C2OC2CC(C)(NCc3ccc(OCCCC#N)cc3)C(O)C(C)O2)Oc2ccc(cc2Cl)C1O (centres unmarked) [Compound 55]
0.5

Identify the reported MIC for the following entry. CNC(CC(C)C)C(=O)NC1C(=O)NC(CC(N)=O)C(=O)NC2C(=O)NC3C(=O)NC(C(=O)NC(C(=O)O)c4cc(O)cc(O)c4-c4cc3ccc4O)C(OC3CC(C)(N)C(O)C(C)O3)c3ccc(c(Cl)c3)Oc3cc2cc(c3OC2OC(CO)C(O)C(O)C2OC2CC(C)(NCCCCCCCCCC#Cc3ccccc3)C(O)C(C)O2)Oc2ccc(cc2Cl)C1O (centres unmarked) [Compound 236]
4

Identify the reported MIC for the following entry. CNC(CC(C)C)C(=O)NC1C(=O)NC(CC(N)=O)C(=O)NC2C(=O)NC3C(=O)NC(C(=O)NC(C(=O)O)c4cc(O)cc(O)c4-c4cc3ccc4O)C(OC3CC(C)(N)C(O)C(C)O3)c3ccc(c(Cl)c3)Oc3cc2cc(c3OC2OC(CO)C(O)C(O)C2OC2CC(C)(NCc3cccc(OCc4ccc5ccccc5n4)c3)C(O)C(C)O2)Oc2ccc(cc2Cl)C1O (centres unmarked) [Compound 125]
1

Identify the reported MIC for the following entry. CNC(CC(C)C)C(=O)NC1C(=O)NC(CC(N)=O)C(=O)NC2C(=O)NC3C(=O)NC(C(=O)NC(C(=O)O)c4cc(O)cc(O)c4-c4cc3ccc4O)C(OC3CC(C)(N)C(O)C(C)O3)c3ccc(c(Cl)c3)Oc3cc2cc(c3OC2OC(CO)C(O)C(O)C2OC2CC(C)(NCCCCCCCCOc3ccc(-c4ccccc4)cc3)C(O)C(C)O2)Oc2ccc(cc2Cl)C1O (centres unmarked) [Compound 201]
8

Identify the reported MIC for the following entry. CCOC(c1ccccc1)c1ccc(CNC2(C)CC(OC3C(Oc4c5cc6cc4Oc4ccc(cc4Cl)C(OC4CC(C)(N)C(O)C(C)O4)C4NC(=O)C(NC(=O)C6NC(=O)C(CC(N)=O)NC(=O)C(NC(=O)C(CC(C)C)NC)C(O)c6ccc(c(Cl)c6)O5)c5ccc(O)c(c5)-c5c(O)cc(O)cc5C(C(=O)O)NC4=O)OC(CO)C(O)C3O)OC(C)C2O)cc1 (centres unmarked) [Compound 126]
0.5

----------
For each record, write down the corresponding MIC.
Tested on: Streptococcus pyogenes C203
procedure text: broth micro-dilution MIC
Format: cell-based

Identify the reported MIC for the following entry. CNC(CC(C)C)C(=O)NC1C(=O)NC(CC(N)=O)C(=O)NC2C(=O)NC3C(=O)NC(C(=O)NC(C(=O)O)c4cc(O)cc(O)c4-c4cc3ccc4O)C(O)c3ccc(c(Cl)c3)Oc3cc2cc(c3OC2OC(CO)C(O)C(O)C2OC2CC(C)(NCc3ccc(-c4ccccc4)cc3)C(O)C(C)O2)Oc2ccc(cc2Cl)C1O (stereo not drawn)
≤ 0.06 µg/mL

Identify the reported MIC for the following entry. CNC(CC(C)C)C(=O)NC1C(=O)NC(CC(N)=O)C(=O)NC2C(=O)NC3C(=O)NC(C(=O)NC(C(=O)O)c4cc(O)cc(O)c4-c4cc3ccc4O)C(OC3CC(C)(N)C(O)C(C)O3)c3ccc(c(Cl)c3)Oc3cc2cc(c3OC2OC(CO)C(O)C(O)C2OC2CC(C)(NCc3ccc(OC(F)(F)C(F)F)cc3)C(O)C(C)O2)Oc2ccc(cc2Cl)C1O (stereo not drawn)
≤ 0.06 µg/mL

Identify the reported MIC for the following entry. CNC(CC(C)C)C(=O)NC1C(=O)NC(CC(N)=O)C(=O)NC2C(=O)NC3C(=O)NC(C(=O)NC(C(=O)O)c4cc(O)cc(O)c4-c4cc3ccc4O)C(OC3CC(C)(N)C(O)C(C)O3)c3ccc(c(Cl)c3)Oc3cc2cc(c3OC2OC(CO)C(O)C(O)C2OC2CC(C)(NCC3=CCC4CC3C4(C)C)C(O)C(C)O2)Oc2ccc(cc2Cl)C1O (stereo not drawn)
≤ 0.06 µg/mL

----------
System: Streptococcus pyogenes
procedure text: mouse protection, experimentally-induced infection
Assay type: in vivo
reported conditions: mice infected with Streptococcus pyogenes, two doses
Threshold 0.06 mg/kg/2. ED50 below it: MET. ED50 at it or above: NOT MET.

Decide: ED50 of CNC(CC(C)C)C(=O)NC1C(=O)NC(CC(N)=O)C(=O)NC2C(=O)NC3C(=O)NC(C(=O)NC(C(=O)O)c4cc(O)cc(O)c4-c4cc3ccc4O)C(OC3CC(C)(N)C(O)C(C)O3)c3ccc(c(Cl)c3)Oc3cc2cc(c3OC2OC(CO)C(O)C(O)C2OC2CC(C)(NCc3ccc(-c4ccc(Cl)cc4)cc3)C(O)C(C)O2)Oc2ccc(cc2Cl)C1O (centres unmarked) [Compound 229, 4-[4-chlorophenyl]benzyl-A82846B] strictly below 0.06 mg/kg/2?
MET

Decide: ED50 of CNC(CC(C)C)C(=O)NC1C(=O)NC(CC(N)=O)C(=O)NC2C(=O)NC3C(=O)NC(C(=O)NC(C(=O)O)c4cc(O)cc(O)c4-c4cc3ccc4O)C(OC3CC(C)(N)C(O)C(C)O3)c3ccc(c(Cl)c3)Oc3cc2cc(c3OC2OC(CO)C(O)C(O)C2OC2CC(C)(NCc3ccc(-c4ccc([N+](=O)[O-])cc4)cc3)C(O)C(C)O2)Oc2ccc(cc2Cl)C1O (centres unmarked) [Compound 64] strictly below 0.06 mg/kg/2?
MET

Decide: ED50 of CNC(CC(C)C)C(=O)NC1C(=O)NC(CC(N)=O)C(=O)NC2C(=O)NC3C(=O)NC(C(=O)NC(C(=O)O)c4cc(O)cc(O)c4-c4cc3ccc4O)C(OC3CC(C)(N)C(O)C(C)O3)c3ccc(c(Cl)c3)Oc3cc2cc(c3OC2OC(CO)C(O)C(O)C2OC2CC(C)(NCc3ccc(OCc4ccccc4)c(OCc4ccccc4)c3)C(O)C(C)O2)Oc2ccc(cc2Cl)C1O (centres unmarked) [Compound 53] strictly below 0.06 mg/kg/2?
NOT MET

Decide: ED50 of CCOc1cc(CNC2(C)CC(OC3C(Oc4c5cc6cc4Oc4ccc(cc4Cl)C(OC4CC(C)(N)C(O)C(C)O4)C4NC(=O)C(NC(=O)C6NC(=O)C(CC(N)=O)NC(=O)C(NC(=O)C(CC(C)C)NC)C(O)c6ccc(c(Cl)c6)O5)c5ccc(O)c(c5)-c5c(O)cc(O)cc5C(C(=O)O)NC4=O)OC(CO)C(O)C3O)OC(C)C2O)ccc1OCC1CCCCC1 (centres unmarked) [Compound 105] strictly below 0.06 mg/kg/2?
NOT MET

Decide: ED50 of CCCCCCCCCOc1ccc(CNC2(C)CC(OC3C(Oc4c5cc6cc4Oc4ccc(cc4Cl)C(OC4CC(C)(N)C(O)C(C)O4)C4NC(=O)C(NC(=O)C6NC(=O)C(CC(N)=O)NC(=O)C(NC(=O)C(CC(C)C)NC)C(O)c6ccc(c(Cl)c6)O5)c5ccc(O)c(c5)-c5c(O)cc(O)cc5C(C(=O)O)NC4=O)OC(CO)C(O)C3O)OC(C)C2O)cc1 (centres unmarked) [Compound 8] strictly below 0.06 mg/kg/2?
NOT MET

Decide: ED50 of CCCc1ccc(-c2ccc(CNC3(C)CC(OC4C(Oc5c6cc7cc5Oc5ccc(cc5Cl)C(OC5CC(C)(N)C(O)C(C)O5)C5NC(=O)C(NC(=O)C7NC(=O)C(CC(N)=O)NC(=O)C(NC(=O)C(CC(C)C)NC)C(O)c7ccc(c(Cl)c7)O6)c6ccc(O)c(c6)-c6c(O)cc(O)cc6C(C(=O)O)NC5=O)OC(CO)C(O)C4O)OC(C)C3O)cc2)cc1 (centres unmarked) [Compound 107] strictly below 0.06 mg/kg/2?
NOT MET

Decide: ED50 of CN[C@H](CC(C)C)C(=O)N[C@H]1C(=O)N[C@@H](CC(N)=O)C(=O)N[C@H]2C(=O)N[C@H]3C(=O)N[C@H](C(=O)N[C@H](C(=O)O)c4cc(O)cc(O)c4-c4cc3ccc4O)[C@H](O[C@H]3C[C@](C)(N)[C@@H](O)[C@H](C)O3)c3ccc(c(Cl)c3)Oc3cc2cc(c3O[C@@H]2O[C@H](CO)[C@@H](O)[C@H](O)[C@H]2O[C@H]2C[C@](C)(NCc3ccc(Oc4ccc(Cl)cc4)c([N+](=O)[O-])c3)[C@@H](O)[C@H](C)O2)Oc2ccc(cc2Cl)[C@H]1O [Compound 94] strictly below 0.06 mg/kg/2?
NOT MET

Decide: ED50 of CNC(CC(C)C)C(=O)NC1C(=O)NC(CC(N)=O)C(=O)NC2C(=O)NC3C(=O)NC(C(=O)NC(C(=O)O)c4cc(O)cc(O)c4-c4cc3ccc4O)C(OC3CC(C)(N)C(O)C(C)O3)c3ccc(c(Cl)c3)Oc3cc2cc(c3OC2OC(CO)C(O)C(O)C2OC2CC(C)(NCc3ccc(OCc4ccccc4)c(OC)c3)C(O)C(C)O2)Oc2ccc(cc2Cl)C1O (centres unmarked) [Compound 52] strictly below 0.06 mg/kg/2?
MET

Decide: ED50 of CNC(CC(C)C)C(=O)NC1C(=O)NC(CC(N)=O)C(=O)NC2C(=O)NC3C(=O)NC(C(=O)NC(C(=O)O)c4cc(O)cc(O)c4-c4cc3ccc4O)C(OC3CC(C)(N)C(O)C(C)O3)c3ccc(c(Cl)c3)Oc3cc2cc(c3OC2OC(CO)C(O)C(O)C2OC2CC(C)(NCc3ccc(-c4ccc(Br)cc4)cc3)C(O)C(C)O2)Oc2ccc(cc2Cl)C1O (centres unmarked) [Compound 230] strictly below 0.06 mg/kg/2?
MET

Decide: ED50 of CNC(CC(C)C)C(=O)NC1C(=O)NC(CC(N)=O)C(=O)NC2C(=O)NC3C(=O)NC(C(=O)NC(C(=O)O)c4cc(O)cc(O)c4-c4cc3ccc4O)C(OC3CC(C)(N)C(O)C(C)O3)c3ccc(c(Cl)c3)Oc3cc2cc(c3OC2OC(CO)C(O)C(O)C2OC2CC(C)(NCc3ccc(CCc4ccccc4)cc3)C(O)C(C)O2)Oc2ccc(cc2Cl)C1O (centres unmarked) [Compound 100] strictly below 0.06 mg/kg/2?
NOT MET

Decide: ED50 of CNC(CC(C)C)C(=O)NC1C(=O)NC(CC(N)=O)C(=O)NC2C(=O)NC3C(=O)NC(C(=O)NC(C(=O)O)c4cc(O)cc(O)c4-c4cc3ccc4O)C(OC3CC(C)(N)C(O)C(C)O3)c3ccc(c(Cl)c3)Oc3cc2cc(c3OC2OC(CO)C(O)C(O)C2OC2CC(C)(NCc3ccc4ccccc4c3)C(O)C(C)O2)Oc2ccc(cc2Cl)C1O (centres unmarked) [Compound 1] strictly below 0.06 mg/kg/2?
MET
